System: HEK293T cells
RUN_DESCRIPTION: Cell viability in the high-throughput screen (cell nuclei numbers)
STUDY_CONDITIONS: 10 μM compound, cell nuclei numbers
ASSAY_ENDPOINT: PERCENT VIABILITY (%)
One number for each entry, in %.

Some entries whose results are on file:
{"MOLECULE": "NCCNc1ccc(NCCN)c2c1C(=O)c1ccncc1C2=O [Pixantrone dimaleate]", "ASSAYED_SYSTEM": "HEK293T cells", "ASSAY_ENDPOINT": "PERCENT VIABILITY", "UNIT_DESCRIPTOR": "%", "REPORTED_VALUE": 120.8}
{"MOLECULE": "COc1cccc2c1C(=O)c1c(O)c3c(c(O)c1C2=O)C[C@@](O)(C(=O)CO)C[C@@H]3O[C@H]1C[C@H](N)[C@H](O)[C@H](C)O1.Cl [Doxorubicin Â•HCl]", "ASSAYED_SYSTEM": "HEK293T cells", "ASSAY_ENDPOINT": "PERCENT VIABILITY", "UNIT_DESCRIPTOR": "%", "REPORTED_VALUE": 6.15}
{"MOLECULE": "C[C@@H]1O[C@@H](O[C@@H]2C=C3CC[C@@H]4[C@H](CC[C@]5(C)[C@@H](c6ccc(=O)oc6)CC[C@]45O)[C@@]3(C)CC2)[C@H](O)[C@H](O)[C@H]1O [PROSCILLARIDIN]", "ASSAYED_SYSTEM": "HEK293T cells", "ASSAY_ENDPOINT": "PERCENT VIABILITY", "UNIT_DESCRIPTOR": "%", "REPORTED_VALUE": 3.4}
{"MOLECULE": "O=C(Nc1cccc(C(F)(F)F)c1)c1ccccc1O [salfluverine]", "ASSAYED_SYSTEM": "HEK293T cells", "ASSAY_ENDPOINT": "PERCENT VIABILITY", "UNIT_DESCRIPTOR": "%", "REPORTED_VALUE": 133.5}
{"MOLECULE": "CCN1/C(=C/C=C/C=C/c2sc3ccccc3[n+]2CC)Sc2ccccc21.[I-] [dithiazanine]", "ASSAYED_SYSTEM": "HEK293T cells", "ASSAY_ENDPOINT": "PERCENT VIABILITY", "UNIT_DESCRIPTOR": "%", "REPORTED_VALUE": 48.28}

From here, focus on the item given below.
QUERY: Which PERCENT VIABILITY is reported for this molecule? CC[C@@]1(O)C[C@H](OC2CC(N(C)C)C(OC3CC(O)C(OC4CCC(=O)C(C)O4)C(C)O3)C(C)O2)c2c(cc3c(c2O)C(=O)c2c(O)cccc2C3=O)[C@H]1C(=O)OC (stereo partly drawn) [aclarubicin]
RESULT: 52.5
